assay: gradient 5% acetonitrile 3 min, to 50% in 2 min, to 85% in 15 min, held 3 min, 100 µL/min; conditions: column: Zorbax Extend-C18 2.1 x 50 mm; eluents: water / acetonitrile, 0.1% formic acid
reported property: RP-LC retention time (s)

*Q* Give the reported RP-LC retention time for this compound. CCN1C(=O)c2cc(S(=O)(=O)NCc3ccc(F)cc3)ccc2Oc2cccnc21
*A* 1060

*Q* Give the reported RP-LC retention time for this compound. CC(C)NC(=O)c1ccc2c(c1)N(C)C(=O)CS2
*A* 698

P = COc1ccc(CNC(=O)Cn2c(N3CCCC3)nc(C)cc2=O)cc1
Q = CCc1nn(CC)c(=O)c2cc(S(=O)(=O)NCc3ccc(Cl)cc3)cn12
*Q* Endpoint returns the identifier whose RP-LC retention time is numerically larger, either P or Q . Use the label to indicate which entry you chose.
*A* Q
(Q: 989 s, P: 612 s)

* * *

test: gradient 5% acetonitrile 3 min, to 50% in 2 min, to 85% in 15 min, held 3 min, 100 µL/min; conditions: column: Zorbax Extend-C18 2.1 x 50 mm; eluents: water / acetonitrile, 0.1% formic acid
reported property: RP-LC retention time (s)

*Q* Give the reported RP-LC retention time for this compound. O=C(c1cccn2c(=O)c3c4c(sc3nc12)CCCC4)N1CCN(c2ccccn2)CC1
*A* 656

*Q* Give the reported RP-LC retention time for this compound. Cc1c(O)ccc2c1oc(=O)c1ccccc12
*A* 808

*Q* Give the reported RP-LC retention time for this compound. CCN(CC)S(=O)(=O)c1cccc(-c2nnc(-c3ccc(OC)c(OC)c3)o2)c1
*A* 950

P = O=C(Cc1c(Sc2ccccc2)[nH]c2ccccc12)NCCN1CCOCC1
Q = CCCN(CC1CCOC1)S(=O)(=O)c1cccc(C(F)(F)F)c1 (stereo not given)
*Q* Hey, which is lower on measured RP-LC retention time, P or Q ? Use the label to indicate which entry you chose.
*A* P
(P: 654 s, Q: 1000 s)

* * *

experiment: gradient 5% acetonitrile 3 min, to 50% in 2 min, to 85% in 15 min, held 3 min, 100 µL/min; details: column: Zorbax Extend-C18 2.1 x 50 mm; eluents: water / acetonitrile, 0.1% formic acid
reported property: RP-LC retention time (s)

Illustrative cases are given below, each with its answer.
*Q* Give the reported RP-LC retention time for this compound. CCCCc1ccc(Nc2c(C(=O)N3CCSCC3)cnc3nc(C)ccc23)cc1
*A* 723

*Q* Give the reported RP-LC retention time for this compound. CCOC(=O)c1c(C)[nH]c(C)c1S(=O)(=O)N1CCC(C(=O)Nc2ccc3c(c2)OCO3)CC1
*A* 774

*Q* Give the reported RP-LC retention time for this compound. CCNC(=O)c1cn(-c2ccc(SCC(=O)Nc3ccc(Cl)cc3F)nn2)cn1
*A* 702

*Q* Give the reported RP-LC retention time for this compound. COC(=O)C1=CN(c2ccccc2OC)c2cc(F)ccc2S1(=O)=O
*A* 860

*Q* Give the reported RP-LC retention time for this compound. Cc1ccc(CN(C)Cc2cc(=O)n3cc(Cl)ccc3n2)cc1
*A* 629

P = COc1cccc(-c2csc(Cc3nc(-c4cccc(C)c4)no3)n2)c1
Q = CCn1ncn2cc(S(=O)(=O)NC(C)c3ccccc3)cc2c1=O (stereo not given)
*Q* Hey, which is lower on measured RP-LC retention time, P or Q ? Use the label to indicate which entry you chose.
*A* Q

A = Brc1ccc(Nc2nc(-c3ccccc3)cs2)nc1
B = NS(=O)(=O)c1ccc(CCNC(=O)c2ccc3c(c2)NC(=O)C2CCCCN32)cc1 (stereo not given)
*Q* Endpoint returns the identifier whose RP-LC retention time is numerically larger, either A or B . Use the label to indicate which entry you chose.
*A* A
(A: 1210 s, B: 672 s)

I = COc1ccc(-c2nnc(Cc3nc(-c4cccc(Cl)c4)no3)o2)cc1OC
II = Cn1c(N2CCCC(C(=O)NCC3CCN(CCc4cccs4)CC3)C2)cc(=O)n(C)c1=O (stereo not given)
*Q* Hey, which is lower on measured RP-LC retention time, I or II ? Use the label to indicate which entry you chose.
*A* II
(II: 589 s, I: 995 s)
